These measurements were taken from patent US11395857B2.

# System: B16F10 mouse melanoma
# Experimental protocol: Biodistribution of 177Lu-labeled αMSH analogues in mice bearing B16F10 mouse melanoma
# Type: in vivo, C57BL/6J mice
# Measurement setup: 1 h p.i., C57BL/6J mice, B16F10 melanoma
# Description: The B16-F10 mouse melanoma cells were cultured and inoculated in mice as described in Example 1. For biodistribution studies, approximately 1-2 MBq of ^177Lu-labeled αMSH analogues via tail vein under anesthesia. At 1, 4, 24, and 120 h p.i., the mice were euthanized by CO2 inhalation. Organs/tissues were harvested and the radioactivity was measured as described in Example 1.
Assay endpoint: Biodistribution, B16F10 tumour (% ID/g)
Value expressed in % ID/g; do not type the unit.

**Q:** Quickly give me recorded Biodistribution, B16F10 tumour for CCCC[C@H](NC(=O)CN1CCC(NC(=O)CN2CCN(CC(=O)O)CCN(CC(=O)O)CCN(CC(=O)O)CC2)CC1)C(=O)N[C@H]1CC(=O)NCCCC[C@@H](C(N)=O)NC(=O)[C@H](Cc2c[nH]c3ccccc23)NC(=O)[C@H](CCCNC(=N)N)NC(=O)[C@@H](Cc2ccccc2)NC(=O)[C@H](Cc2c[nH]cn2)NC1=O [^177Lu-labeled CCZ01048, metal not drawn, reference compound]
**A:** 16.3

**Q:** Determine from records and report Biodistribution, B16F10 tumour for CCCC[C@H](NC(=O)CN1CCC(NC(=O)[C@H](CCCCNC(=O)CN2CCN(CC(=O)O)CCN(CC(=O)O)CCN(CC(=O)O)CC2)NC(=O)[C@H](CCC(=O)O)NC(=O)CCCc2ccc(I)cc2)CC1)C(=O)N[C@H]1CC(=O)NCCCC[C@@H](C(N)=O)N(C)C(=O)[C@H](Cc2c[nH]c3ccccc23)N(C)C(=O)[C@H](CCCNC(=N)N)N(C)C(=O)[C@@H](Cc2ccccc2)NC(=O)[C@H](Cc2c[nH]cn2)N(C)C1=O [^177Lu-labeled CCZ01088, metal not drawn]
**A:** 10.6

**Q:** Return reported Biodistribution, B16F10 tumour. Input molecule: CCCC[C@H](NC(=O)CN1CCC(NC(=O)CN2CCN(CC(=O)O)CCN(CC(=O)O)CCN(CC(=O)O)CC2)CC1)C(=O)N[C@H]1CC(=O)NCCCC[C@@H](C(N)=O)N(C)C(=O)[C@H](Cc2c[nH]c3ccccc23)NC(=O)[C@H](CCCNC(=N)N)N(C)C(=O)[C@@H](Cc2ccccc2)NC(=O)[C@H](Cc2c[nH]cn2)NC1=O [^177Lu-labeled CCZ01106, metal not drawn]
**A:** 8.25

====

# Experimental protocol: Biodistribution of 177Lu-labeled αMSH analogues in mice bearing B16F10 mouse melanoma
# Assay type: in vivo, C57BL/6J mice
# Measurement setup: male, mouse, seminal glands, iv, total radioactivity; 4 h p.i., C57BL/6J mice, B16F10 melanoma; read-out: Biodistribution, Seminal glands
# reported tissue uptake at 4 h; entries follow
Record the value in %ID/g, omitting the unit from your answer.

**Q:** Please supply the value of reported tissue uptake at 4 h for the item CCCC[C@H](NC(=O)CN1CCC(NC(=O)[C@H](CCCCNC(=O)CN2CCN(CC(=O)O)CCN(CC(=O)O)CCN(CC(=O)O)CC2)NC(=O)[C@H](CCC(=O)O)NC(=O)CCCc2ccc(I)cc2)CC1)C(=O)N[C@H]1CC(=O)NCCCC[C@@H](C(N)=O)NC(=O)[C@H](Cc2c[nH]c3ccccc23)NC(=O)[C@H](CCCNC(=N)N)NC(=O)[C@@H](Cc2ccccc2)NC(=O)[C@H](Cc2c[nH]cn2)NC1=O [^177Lu-labeled CCZ01082, metal not drawn]
**A:** 0.32

**Q:** Please give measured tissue uptake at 4 h of the following entry: CCCC[C@H](NC(=O)CN1CCC(NC(=O)[C@H](CCCCNC(=O)CN2CCN(CC(=O)O)CCN(CC(=O)O)CCN(CC(=O)O)CC2)NC(=O)[C@H](CCC(=O)O)NC(=O)CCCc2ccc(I)cc2)CC1)C(=O)N[C@H]1CC(=O)NCCCC[C@@H](C(N)=O)N(C)C(=O)[C@H](Cc2c[nH]c3ccccc23)N(C)C(=O)[C@H](CCCNC(=N)N)N(C)C(=O)[C@@H](Cc2ccccc2)NC(=O)[C@H](Cc2c[nH]cn2)N(C)C1=O [^177Lu-labeled CCZ01088, metal not drawn]
**A:** 0.14

**Q:** Retrieve tissue uptake at 4 h measured for CCCC[C@H](NC(=O)CN1CCC(NC(=O)CN2CCN(CC(=O)O)CCN(CC(=O)O)CCN(CC(=O)O)CC2)CC1)C(=O)N[C@H]1CC(=O)NCCCC[C@@H](C(N)=O)N(C)C(=O)[C@H](Cc2c[nH]c3ccccc23)NC(=O)[C@H](CCCNC(=N)N)N(C)C(=O)[C@@H](Cc2ccccc2)NC(=O)[C@H](Cc2c[nH]cn2)NC1=O [^177Lu-labeled CCZ01106, metal not drawn] and print it.
**A:** 0.02

**Q:** Tell us which tissue uptake at 4 h value is on record for CCCC[C@H](NC(=O)CN1CCC(NC(=O)CN2CCN(CC(=O)O)CCN(CC(=O)O)CCN(CC(=O)O)CC2)CC1)C(=O)N[C@H]1CC(=O)NCCCC[C@@H](C(N)=O)N(C)C(=O)[C@H](Cc2c[nH]c3ccccc23)N(C)C(=O)[C@H](CCCNC(=N)N)N(C)C(=O)[C@@H](Cc2ccccc2)NC(=O)[C@H](Cc2c[nH]cn2)N(C)C1=O [^177Lu-labeled CCZ01099, metal not drawn]
**A:** 0.02

**Q:** Give recorded tissue uptake at 4 h. CCCC[C@H](NC(=O)CN1CCC(NC(=O)[C@H](CCCCNC(=O)CN2CCN(CC(=O)O)CCN(CC(=O)O)CCN(CC(=O)O)CC2)NC(=O)[C@H](CCC(=O)O)NC(=O)CCCc2ccc(I)cc2)CC1)C(=O)N[C@H]1CC(=O)NCCCC[C@@H](C(N)=O)N(C)C(=O)[C@H](Cc2c[nH]c3ccccc23)NC(=O)[C@H](CCCNC(=N)N)N(C)C(=O)[C@@H](Cc2ccccc2)NC(=O)[C@H](Cc2c[nH]cn2)NC1=O [^177Lu-labeled CCZ01118, metal not drawn]
**A:** 0.15
